Hello, the source for this data is patent US20240336601A1, in case you need it.

- Measured on: PD-1/PD-L1 interaction (Homo sapiens)
- Sequence (Q9NZQ7 19-290): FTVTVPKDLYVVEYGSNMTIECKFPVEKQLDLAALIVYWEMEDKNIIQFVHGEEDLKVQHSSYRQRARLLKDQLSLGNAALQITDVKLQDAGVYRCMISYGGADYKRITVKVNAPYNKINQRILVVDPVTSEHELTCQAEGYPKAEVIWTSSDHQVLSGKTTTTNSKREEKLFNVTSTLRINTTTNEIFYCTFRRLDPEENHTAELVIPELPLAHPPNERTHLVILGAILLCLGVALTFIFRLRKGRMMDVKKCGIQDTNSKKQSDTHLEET
- Experiment notes: PD-1/PD-L1 blockage cell-based bioassay (Jurkat NFAT luciferase / CHO-PDL1 co-culture)
- Experimental setup: Jurkat NFAT cells co-cultured with CHO-PDL1 cells, 6 h, luminescence
Provide the recorded IC50 for the entries that follow.

Query string: Given the entry COc1cc(-n2ncc3c(-c4cccc(-c5ccc(CN6CC7(CNC(=O)C7)C6)c(OC)n5)c4F)cccc32)cc(OC)c1CNC[C@@H]1CCC(=O)N1 , report its measured IC50.
Result string: < 200 nM

Query string: Here is the next molecule: COc1cc(-n2ncc3c(-c4cccc(-c5ccc(CN6CC(C)(C(N)=O)C6)c(OC)n5)c4Cl)cccc32)cc(OC)c1CN1CC(C)(O)C1
Result string: 201 to 2000 nM

Query string: Query COc1cc(-n2ncc3c(-c4cccc(-c5ccc(CN6CC(C)(C(=O)NC7CC7)C6)c(OC)n5)c4Cl)cccc32)cc(OC)c1CNC[C@@H]1CCC(=O)N1 next
Result string: < 200 nM

Query string: # iterate: COc1cc(-n2ccc3c(-c4cccc(NC(=O)c5nc6c(s5)CN(C)CC6)c4C)cccc32)cc(OC)c1CNC[C@@H]1CCC(=O)N1
Result string: > 2000 nM

Query string: Same again, this time with COc1cc(-c2cccc(-c3cccc4c3cnn4-c3cc(OC)c(CN4CC[C@@H](O)C4)c(OC)c3)c2Cl)cc(F)c1CN(C)C12CCC(C(=O)O)(CC1)CC2
Result string: < 200 nM

Query string: Also COc1cc(-n2ncc3c(-c4cccc(-c5ccc(CNC[C@@H]6CCC(=O)N6)c(OC)n5)c4Cl)cccc32)cc(OC)c1CNCC1(C(=O)O)CC1 ?
Result string: < 200 nM
